Attribution: PubChem BioAssay

assay: modulators of S6 phosphorylation in cells, primary screen, cell-based, A549, cytoblot, luminescence, serum-stimulated (AID 1158); settings: A549 phospho-S6 cytoblot, 5 h, higher = more signal;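 further: serum-stimulated A549 lung adenocarcinoma cells; signal is phosphorylated S6 detected by cytoblot immunostaining with HRP secondary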

- compound: "O=C1OCCC=C1C(O)CCc1ccccc1 (stereo not drawn)"
  z-score: -0.136
- compound: "CC(C)CON=C1C[C@@H](O)[C@@H](O)[C@@H]2[C@@H]3C(=O)N(C(C)(C)C)C(=O)[C@@H]3CC[C@H]12"
  z-score: -0.382
- compound: "C=Cc1ccc([C@H]2N[C@H](C(=O)O)CC[C@@H]2C)cc1"
  z-score: -0.599
- compound: "CC(=O)Nc1ccc([C@@H]2N[C@H](C(=O)O)CC[C@H]2C)cc1"
  z-score: 0.699
- compound: "C[C@H]1COC(=O)[C@@H]2CCCN2C(=O)[C@@H](C)COC(=O)[C@H](Cc2ccccc2)NC1=O"
  z-score: 0.413
- compound: "CO[C@H]1COC(=O)[C@@H](C)COC(=O)[C@H](C)NC(=O)CC=C[C@H]1C"
  z-score: -0.144
- compound: "CO[C@@H]1COC(=O)[C@H](CCSC)NC(=O)CC=C[C@@H](C)COC(=O)[C@H](C)NC(=O)CC=C[C@H]1C"
  z-score: 0.399
- compound: "Cc1cc2c(nc1C)CCCCN2CC(C)ON=C1[C@H]2CCn3c(=O)n(-c4ccccc4)c(=O)n3[C@H]2[C@H](O)[C@@H]2O[C@H]12 (stereo partly drawn)"
  z-score: 0.0162
- compound: "CCC(=O)[C@@]1(O)C(=O)N2C(=C3C(=O)OCC[C@@H]31)N(Cc1ccccc1)C(C)=C(C(=O)OC)[C@H]2c1ccccc1"
  z-score: -0.131
- compound: "COc1cccc([C@@H]2Oc3ccc(OC)cc3C(=O)[C@H]2O)c1"
  z-score: 2.08
- compound: "CCc1cc2c(nc1CC)CCN(CCC(C)=NO[C@H](C)c1cn([C@H](CO)Cc3ccccc3)nn1)C2"
  z-score: 0.917
- compound: "CC(C)=NO[C@H](C)c1cn([C@H](CO)Cc2ccccc2)nn1"
  z-score: 0.225
- compound: "O=C1[C@H]2[C@H]3[C@H](O)[C@H](O)CC(=NOCc4ccccc4)[C@@H]3CC[C@H]2C(=O)N1Cc1ccc2c(c1)OCO2"
  z-score: 0.0008

----------
biological target: Follistatin-related protein 3 (Homo sapiens) (UniProt O95633); assay: FSTL3 binders on small-molecule microarrays, primary screen, biochemical, small-molecule microarray, 635 nm fluorescence (AID 1105); conditions: FSTL3 binding, higher = more signal;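 further: score merges emission near 667 nm and signal to noise per printed spot across three slides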
Sequence (O95633 whole entry, looked up): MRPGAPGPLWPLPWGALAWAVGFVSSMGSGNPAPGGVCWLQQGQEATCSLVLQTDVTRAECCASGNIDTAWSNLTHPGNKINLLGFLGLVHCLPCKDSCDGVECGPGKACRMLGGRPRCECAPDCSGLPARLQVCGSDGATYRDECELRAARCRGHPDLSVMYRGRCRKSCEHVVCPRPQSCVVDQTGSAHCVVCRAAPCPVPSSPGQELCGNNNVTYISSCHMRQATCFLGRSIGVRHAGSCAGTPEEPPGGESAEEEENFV
# binarize composite z-score: threshold 0.8 inclusive, high side Satisfied, low side Not satisfied

- molecule: "CCOC(=O)NN=C1C[C@@H](O)[C@@H](O)[C@@H]2[C@@H]3C(=O)N(Cc4ccc5c(c4)OCO5)C(=O)[C@@H]3CC[C@H]12"
  groupLabel: "Not satisfied"
- molecule: "CCN1C(=O)[C@H]2[C@H]3[C@H](O)[C@H](O)CC(=NOC[C@H]4O[C@H](c5ccccc5)C=C[C@@H]4Oc4ccc(OC)cc4)[C@@H]3CC[C@H]2C1=O"
  groupLabel: "Not satisfied"
- molecule: "CC(C)CON=C1C[C@@H](O)[C@@H](O)[C@@H]2[C@@H]3C(=O)N(C(C)(C)C)C(=O)[C@@H]3CC[C@H]12"
  groupLabel: "Not satisfied"
- molecule: "CC(C)=CCCC(C)=CCON=C1C[C@@H](O)[C@@H](O)[C@@H]2[C@@H]3C(=O)N(Cc4ccccc4)C(=O)[C@@H]3CC[C@@H]12"
  groupLabel: "Satisfied"
- molecule: "COC(=O)[C@H]1O[C@@H](c2c(OC)c(OC)c(C)c(OC)c2OC)[C@H](C)[C@@H](O)[C@H]1C"
  groupLabel: "Satisfied"
- molecule: "C=C(C)C(=O)OCC1CN2[C@@H](CC[C@@H](C)[C@@H]2c2ccc(Br)cc2)C(=O)O1 (stereo not given in full)"
  groupLabel: "Not satisfied"
- molecule: "O=c1n(-c2ccccc2)c(=O)n2n1CC[C@@H]1C(=NOCc3ccccc3)[C@H]3O[C@H]3[C@@H](O)[C@@H]12"
  groupLabel: "Not satisfied"
- molecule: "COc1ccc(C#C[C@@H]2C=C[C@H](OC(C)=O)[C@@H](COC(C)=O)O2)cc1"
  groupLabel: "Satisfied"
- molecule: "O=C(NN=C1C[C@@H](O)[C@@H](O)[C@@H]2[C@@H]3C(=O)N(C4CCCCC4)C(=O)[C@@H]3CC[C@@H]12)OCc1ccccc1"
  groupLabel: "Not satisfied"

----------
experiment: splicing luciferase reporter signal modulators, primary screen, spliceosome inhibition project, cell-based, HEK293, splice +/- reporter (AID 1101); conditions: luminescence, 24 h, higher = more signal, called active from +8 up or from −8 down;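 further: HEK293 cells carrying a splicing-competent luciferase reporter gene; test concentration not given here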
Binning scheme for z-score: range A (below -0.009), range B (-0.009 to below 0.2), range C (0.2 or more)

- compound: "CCOC(=O)[C@H](Cc1ccccc1)NC(=O)CCC1CC(OC(=O)NCc2cccc3ccccc23)CC2(CCCC(COC(=O)NCC(c3ccccc3)c3ccccc3)O2)O1 (some centres undefined)"
  groupLabel: "range A"
- compound: "CO[C@@H]1COC(=O)CC=C[C@@H](C)[C@H](OC)COC(=O)[C@@H](C)COC(=O)CC=C[C@H]1C"
  groupLabel: "range B"
- compound: "CCOC(=O)[C@H](CC(C)C)NC(=O)CCC1CC(OC(=O)NCc2cccc3ccccc23)CC2(CCCC(COC(=O)NCCC(C)C)O2)O1 (some centres undefined)"
  groupLabel: "range A"
- compound: "COC(=O)[C@@H]1CC[C@H](C)[C@@H](c2ccc(C)cc2)N1C(=O)c1ccc(C=NO[C@H](C)c2cn([C@@H]3COC[C@H]3O)nn2)cc1"
  groupLabel: "range B"
- compound: "O=C1[C@H]2[C@H]3[C@H](O)[C@H](O)CC(=NOC[C@@H](O)COCc4ccco4)[C@@H]3CC[C@H]2C(=O)N1C[C@@H]1CCCO1"
  groupLabel: "range A"
- compound: "CO[C@H]1COC(=O)[C@@H](C)COC(=O)[C@H](COCc2ccccc2)NC(=O)CC=C[C@H]1C"
  groupLabel: "range B"
- compound: "CC(CCN1CCCCc2nc(C)c(C)cc21)=NO[C@@H](C)c1cn([C@H](CO)Cc2ccccc2)nn1"
  groupLabel: "range B"
- compound: "COc1ccc(O[C@H]2C=C[C@@H](c3ccccc3)O[C@@H]2CON=C2[C@H]3CCn4c(=O)n(-c5ccccc5)c(=O)n4[C@H]3[C@H](O)[C@@H]3O[C@H]23)cc1"
  groupLabel: "range C"
- compound: "C[n+]1ccc(-c2ccc(CO)cc2)cc1"
  groupLabel: "range C"
- compound: "CC(CCC(=O)OC[C@H]1O[C@H](C#Cc2ccccc2)C=C[C@@H]1Oc1ccc(C)cc1)=NO[C@H](C)c1cn([C@H](CO)Cc2ccccc2)nn1"
  groupLabel: "range C"
- compound: "Cc1ccc(S(=O)(=O)OC[C@H]2CN3[C@H](c4ccc(Br)cc4)[C@@H](C)CC[C@H]3C(=O)O2)cc1"
  groupLabel: "range A"
- compound: "CCOC(=O)NN=C1C[C@@H](O)[C@@H](O)[C@@H]2[C@@H]3C(=O)N(c4ccc(F)cc4F)C(=O)[C@@H]3CC[C@@H]12"
  groupLabel: "range C"
- compound: "C=CC1=C[C@H](O)[C@@H]2O[C@@H]2C12OCCCO2"
  groupLabel: "range C"
- compound: "CC(C)CON=C1[C@H]2CCn3c(=O)n(Cc4cc5c(cc4Cl)OCO5)c(=O)n3[C@H]2[C@H](O)[C@@H]2O[C@H]12"
  groupLabel: "range A"
- compound: "CCOC(=O)[C@H](Cc1ccccc1)NC(=O)CCC1CC(OC(=O)NCc2ccc3c(c2)OCO3)CC2(CCCC(COC(=O)NCCc3ccccc3OC)O2)O1 (some centres undefined)"
  groupLabel: "range C"
- compound: "COC(=O)CC=C[C@@H](C)[C@@H](C=NO[C@@H](C)c1cn([C@H](CO)Cc2ccccc2)nn1)NS(=O)(=O)c1ccc(C)cc1"
  groupLabel: "range A"
- compound: "COC(=O)CC=C[C@@H](C)[C@@H](C=NOC[C@H]1O[C@H](c2ccccc2)C=C[C@@H]1Oc1ccc(OC)cc1)NS(=O)(=O)c1ccc(C)cc1"
  groupLabel: "range B"
- compound: "CCN1C(=O)[C@H]2[C@H]3[C@H](O)[C@H](O)CC(=NOC[C@H]4O[C@H](c5ccccc5)C=C[C@@H]4Oc4ccc(OC)cc4)[C@@H]3CC[C@H]2C1=O"
  groupLabel: "range C"

----------
assay: osmotic lysis modulators in infected erythrocytes, primary screen, PSAC antagonist project, cell-based, P. falciparum Indochina, OD700, 3 h (AID 1156); conditions: higher = more signal, called active from +8 up or from −8 down

- compound: "CC[C@@H](c1ccccc1)n1c(=O)n2n(c1=O)[C@H]1[C@H](O)[C@@H]3O[C@@H]3C(=NOC[C@@H](O)COCc3ccco3)[C@H]1CC2"
  z-score: -0.18
- compound: "COC(=O)C=CCCc1coc(C=CCNC(=O)OC)n1"
  z-score: 1.13
- compound: "O=C1C[C@@H](O)[C@@H](O)[C@@H]2[C@@H]3C(=O)N(C[C@@H]4CCCO4)C(=O)[C@@H]3CC[C@H]12"
  z-score: -0.406
- compound: "C=CC[C@@H]1C=C[C@H](ON=C(C)CCC(=O)OC[C@H]2O[C@H](C#Cc3ccccc3)C=C[C@@H]2Oc2ccc(C)cc2)[C@@H](CO)O1"
  z-score: 0.068
- compound: "COc1cccc([C@H]2Oc3ccc(OC)cc3C(=NOC[C@@H](C)[C@H](OCc3ccccc3)C(C)C)[C@@H]2O)c1"
  z-score: 0.0083
- compound: "O=C1[C@H]2[C@H]3[C@H](O)[C@H](O)CC(=NOCc4ccccc4)[C@H]3CC[C@H]2C(=O)N1Cc1ccc2c(c1)OCO2"
  z-score: 0.686
- compound: "O=C1[C@H]2[C@H]3[C@H](O)[C@H](O)CC(=NOC[C@@H](O)COCc4ccco4)[C@H]3CC[C@H]2C(=O)N1c1ccc(F)cc1F"
  z-score: 0.679
